# Target Or System: T1, human GPC3-His protein (human, UniProt P51654 25-559)
# T1 construct: Bought protein; also called human GPC3 protein; not shown: His tag
# Assay: ELISA, coated human GPC3, antibody 0.01 nM;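 note: Plate-bound antigen coated at 1 µg/mL, antibody incubated 2 h at 37 °C, binding detected by HRP-conjugated secondary antibody with TMB substrate, read as absorbance at 450 nm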
Experimental Readout: OD450 nm (OD450)
Field: numeric (OD450). Do not append units.

Guide cases for OD450 nm, answers given:
F1.110.24 human-murine chimeric antibody (antibody, human IgG1, kappa, V domains shown) VH: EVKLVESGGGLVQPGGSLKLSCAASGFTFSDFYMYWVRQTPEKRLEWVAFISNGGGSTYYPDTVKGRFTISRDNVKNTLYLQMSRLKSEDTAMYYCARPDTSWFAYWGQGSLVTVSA VL: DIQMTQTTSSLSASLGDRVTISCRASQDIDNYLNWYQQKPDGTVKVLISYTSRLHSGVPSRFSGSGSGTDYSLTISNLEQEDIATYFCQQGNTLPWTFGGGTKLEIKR: 0.13
F2.154.1 human-murine chimeric antibody (antibody, human IgG1, kappa, V domains shown) VH: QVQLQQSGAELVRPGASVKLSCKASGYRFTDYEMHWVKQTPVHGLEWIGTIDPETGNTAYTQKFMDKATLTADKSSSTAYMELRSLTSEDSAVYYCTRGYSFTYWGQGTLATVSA VL: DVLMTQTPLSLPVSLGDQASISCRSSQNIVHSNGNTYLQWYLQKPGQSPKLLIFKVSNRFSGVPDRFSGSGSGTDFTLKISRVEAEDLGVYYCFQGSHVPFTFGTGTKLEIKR: 0.38

Now look at this one.
Quickly give me recorded OD450 nm for F4.21.16 human-murine chimeric antibody (antibody, human IgG1, kappa, V domains shown) VH: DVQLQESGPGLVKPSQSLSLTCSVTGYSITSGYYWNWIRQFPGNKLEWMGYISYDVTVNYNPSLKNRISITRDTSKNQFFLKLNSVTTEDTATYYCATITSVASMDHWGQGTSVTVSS VL: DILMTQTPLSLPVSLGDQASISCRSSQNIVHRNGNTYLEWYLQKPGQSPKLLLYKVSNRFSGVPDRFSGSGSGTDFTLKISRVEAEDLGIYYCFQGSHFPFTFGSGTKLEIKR
0.15
